Source of measurements: ChEMBL document CHEMBL5029145

Target: Phosphatidylinositol 4,5-bisphosphate 3-kinase catalytic subunit gamma isoform (Mus musculus)
Sequence (Q9JHG7 whole entry, canonical isoform): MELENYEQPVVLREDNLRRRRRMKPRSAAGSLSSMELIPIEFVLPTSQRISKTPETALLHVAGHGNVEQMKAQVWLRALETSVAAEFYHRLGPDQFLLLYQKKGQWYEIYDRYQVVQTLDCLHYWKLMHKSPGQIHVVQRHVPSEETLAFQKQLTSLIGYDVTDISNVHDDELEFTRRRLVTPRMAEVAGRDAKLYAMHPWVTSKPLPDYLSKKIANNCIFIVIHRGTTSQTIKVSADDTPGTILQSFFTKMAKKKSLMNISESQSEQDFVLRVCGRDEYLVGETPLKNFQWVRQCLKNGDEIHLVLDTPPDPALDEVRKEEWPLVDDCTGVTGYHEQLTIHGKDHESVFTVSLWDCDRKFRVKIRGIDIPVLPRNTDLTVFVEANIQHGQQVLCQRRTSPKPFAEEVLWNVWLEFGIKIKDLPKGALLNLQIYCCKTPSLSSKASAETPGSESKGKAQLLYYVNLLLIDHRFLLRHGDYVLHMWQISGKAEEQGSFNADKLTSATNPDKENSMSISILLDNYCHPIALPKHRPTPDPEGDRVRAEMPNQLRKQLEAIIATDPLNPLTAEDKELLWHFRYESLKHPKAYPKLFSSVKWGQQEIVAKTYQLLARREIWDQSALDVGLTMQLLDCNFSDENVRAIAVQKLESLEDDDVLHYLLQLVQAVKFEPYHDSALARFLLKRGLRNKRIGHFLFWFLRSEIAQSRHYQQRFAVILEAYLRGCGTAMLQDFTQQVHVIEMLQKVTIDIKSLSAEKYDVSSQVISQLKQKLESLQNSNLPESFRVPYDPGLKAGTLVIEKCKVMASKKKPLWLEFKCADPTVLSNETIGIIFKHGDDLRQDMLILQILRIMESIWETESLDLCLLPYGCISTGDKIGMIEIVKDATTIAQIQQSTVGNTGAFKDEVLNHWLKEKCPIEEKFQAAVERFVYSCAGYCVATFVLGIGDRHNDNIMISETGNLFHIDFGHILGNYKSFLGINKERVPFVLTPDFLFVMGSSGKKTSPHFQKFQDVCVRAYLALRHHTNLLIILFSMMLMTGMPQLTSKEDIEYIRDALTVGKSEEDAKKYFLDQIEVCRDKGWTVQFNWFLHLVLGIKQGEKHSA
Test: Inhibition of PI3Kgamma in C5a-stimulated mouse RAW 264 cells assessed as inhibition of AKT phosphorylation at Ser473 residue Pretreated for 15 mins followed by C5a stimulation measured after 3 mins by HTRF assay
Observed property: pIC50
Friendly reminder that pIC50 comes from taking -log10 of the concentration in mol/L.

Would you kindly share the measured pIC50 for Cc1nc(Nc2cccc(N3CCN(C)C3=O)n2)sc1-c1cc2c(c(S(C)(=O)=O)c1)C(=O)N([C@@H](C)C1CC1)C2 ? 9.00

Next entry: CNS(=O)(=O)c1cc(-c2sc(Nc3cccc(N4CCCOC4=O)n3)nc2C)cc2c1C(=O)N([C@@H](C)C1CC1)C2 9.00

Next entry: Cc1nc2sc1-c1cc3c(c(c1)S(=O)(=O)Nc1ccc(cc1)CN(C)CCCNC(=O)c1cccc(n1)N2)C(=O)N([C@@H](C)C1CC1)C3 8.40

Next entry: CC(=O)Nc1nc(C)c(-c2cc3c(c(S(=O)(=O)Nc4cccc(S(C)(=O)=O)c4)c2)C(=O)N([C@@H](C)C2CC2)C3)s1 7.80

Next entry: CNS(=O)(=O)c1cc(-c2sc(Nc3cccc(N4CCN(C)CC4=O)n3)nc2C)cc2c1C(=O)N([C@@H](C)C1CC1)C2 8.90

Next entry: Cc1nc2sc1-c1cc3c(c(c1)S(=O)(=O)NCCCCCNC(=O)c1cccc(n1)N2)C(=O)N([C@@H](C)C1CC1)C3 8.80
